The origin of these recorded values is PubChem BioAssay (NCI).

# test: NCI Yeast Anticancer Drug Screen. Data for the rad50 strain (AID 155);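 note: 0% = growth of vehicle-only cultures of the same strain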
# run.conditions: S. cerevisiae rad50 strain growth inhibition, stronger effect = higher value; at 50.0 µM unless noted
About 79,000 compounds went through this panel and 15% of them were active in at least one assay; those are over-represented in the sample as a whole. The source made the active and inactive calls. Cut-off read from the data, not from the text of the source: active = growth inhibition above about 70%; inactive = the rest.
measurement.name: growth inhibition

Here is how some molecules turned out for growth inhibition.
> print(dat)
                                   molecule   measurement.name            result
1                             CSc1ccc(C)cc1  growth inhibition  30.6% (inactive)
2  COc1ccc2c(c1)CCC1=C2CCC2(C)C1=CCS2(=O)=O (configuration not stated)  growth inhibition  3.85% (inactive)
3  COC1OC2COc3ccccc3OC2C2C1N2C(N)=O (configuration not stated)  growth inhibition   7.4% (inactive)

Now let's try a different one.
get_value(item= CC(=O)NC1=NC(=O)/C(=C/c2ccccc2Cl)N1C , readout=growth inhibition) returns -45.7% (inactive)
